Form field: pKd (one value per entry).
target: T1, AAV8; experiment: SPR, AAV on CM5 chip;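 further: surface plasmon resonance with AAV amine-coupled to the chip as ligand, nanobodies injected as analyte over a concentration series, rate constants and affinity fitted from binding curves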
T1 construct: also called adeno-associated virus serotype 8
Schema: pKd number; meaning minus log10 of the concentration expressed in molar units.

Use these answered entries as a reference point.
BINDER	pKd
A4-008 (VHH) VHH: VQLQESGGGLVQAGGSLRLSCAASGRAFSINTMGWYRQAPPKQRELVATVTRGGSTNYAGSVKGRFTISRDNAKNTIYLQMNSLRPEDTAVYYCHVDEVRQSSWTTSNIWGQGTQVTVSS	6.28
A4-013 (VHH) VHH: VQLQESGGGLVQPGGSLRLSCAASGSRFSINSMGWYRQAPGKQRELVATVTRGGNTNYADSVKGRFTISRDNAKNTVYLQMNSLRPEDTAVYYCHVDEVRESSWTTSNLWGQGTQVTVSS	5.91
A4-048 (VHH) VHH: VQLQESGGGLVQPGGSLRLSCAASGSMFSINTMGWYRQAPGKQRELVATVTRGGNTNYAGSVKGRFTISRDNAKNTVYLQMNSLRPEDTAVYYCHVDEVRQSSWTTSNLWGQGTQVTVSS	6.84
A4-033 (VHH) VHH: VQLQESGGGLVQPGGSLRLSCVASGSSFSINTMGWYRRAPGKQRELVATVTRDGSTNYANSVKGRFTISRDNAKNTVYLQMNSLRPEDTAVYYCHVDEVRQSSWTTSNLWGQGTQVTVSS	7.05
A4-040 (VHH) VHH: VQLQESGGGLVQPGGSLRLSCAASGRIFSINTMGWYRQAPGKQRELVATVTRGGSTNYADSVKGRFTISRDNAKNTVYLQMNSLRPEDTAVYYCHVDEIRQSSWTTSNLWGQGTQVTVSS	8.77
A4-023 (VHH) VHH: VQLQESGGGLVQPGGSLRLSCAASGSAFSINTMGWYRQAPGKQRELVASVTPGGSTNYADSVKGRFTISRDNAKNTIYLQMNSLRPEDTAVYYCHLDEVRESSWTTSNLWGQGTQVTVSS	6.84
A4-041 (VHH) VHH: VQLQESGGGLVQPGGSLRLSCAASGRGFSINTMGWYRQAPGKQRELVATVTRGGSTNYANSVKGRFTISRDNAKNTVYLQMNSLRPEDTAVYYCHVDELRQSSWTTSNLWGQGTQVTVSS	5.70

Would you kindly look at the next entry?
IN: Can you look up the measured pKd of A4-034 (VHH) VHH: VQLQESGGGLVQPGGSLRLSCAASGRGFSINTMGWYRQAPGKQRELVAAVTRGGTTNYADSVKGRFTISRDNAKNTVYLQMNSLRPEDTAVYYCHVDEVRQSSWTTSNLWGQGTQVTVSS for me?
OUT: 8.11

The reported numbers originate from patent US20260193326A1.
